Can you tell me P50 with purified hemoglobin for the items I'm about to list?
Target: purified human hemoglobin (Homo sapiens, UniProt P68871)
Construct: For experiments with purified hemoglobin, hemoglobin (20 μM as tetramer) was dissolved in DPBS
Sequence (P68871 2-147 limits assumed): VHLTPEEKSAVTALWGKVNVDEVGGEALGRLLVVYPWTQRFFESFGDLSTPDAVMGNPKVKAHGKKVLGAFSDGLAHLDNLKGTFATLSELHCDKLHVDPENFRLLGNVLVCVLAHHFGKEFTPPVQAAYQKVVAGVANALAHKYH
Sequence (P69905 2-142 partner limits assumed): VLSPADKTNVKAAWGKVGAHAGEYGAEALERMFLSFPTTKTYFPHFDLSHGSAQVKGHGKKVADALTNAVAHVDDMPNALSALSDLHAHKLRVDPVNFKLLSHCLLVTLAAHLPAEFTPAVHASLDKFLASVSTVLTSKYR
Experiment: Oxygen dissociation curve (ODC) of purified hemoglobin, Hemox analyzer, P50
Type: biochemical
Details: hemoglobin 20 μM, tested compound 120 μM; purified hemoglobin alone 17 Torr
Non-standard residues stand in square brackets, D forms with d. Residues, ends and D or L forms follow the SMILES beside them. dNMeBip = CN[C@H](Cc1ccc(-c2ccccc2)cc1)C(=O)O
Give just the numeric value; Torr need not be written.

query: What does the data say about its P50 with purified hemoglobin? Entry: Cc1cc(C)cc(C(=O)N(C)C(Cc2ccc(-c3ccccc3)cc2)C(=O)NCC(=O)O)c1 (stereo not shown) [Compound 9]
result: 28

query: Consider next the molecule Cc1cc(C)cc(C(=O)N(C)[C@H](Cc2ccc(-c3ccccc3)cc2)C(=O)N[C@@H](Cc2c[nH]c3ccccc23)C(=O)O)c1 [Compound 1] in the same way.
result: 24

query: Consider next the molecule CC(=O)N(C)[C@@H](Cc1ccccc1)C(=O)N[C@H](Cc1c[nH]c2ccccc12)C(=O)O (stereo in doubt) [Compound 5] in the same way.
result: 18

query: Consider next the molecule Cc1cc(C)cc(C(=O)N(C)[C@H](Cc2ccccc2)C(=O)N[C@@H](Cc2c[nH]c3ccccc23)C(=O)O)c1 [Compound 2] in the same way.
result: 20

query: Consider next the molecule Cc1cc(C)cc(C(=O)N(C)C(Cc2ccc(-c3ccccc3)cc2)C(=O)NC(C)(C)C(=O)O)c1 (stereo not shown) [Compound 10] in the same way.
result: 23

query: Consider next the molecule Cc1cc(C)cc(C(=O)NC(Cc2ccc(-c3ccccc3)cc2)C(=O)NCC(=O)O)c1 (stereo not shown) [Compound 8] in the same way.
result: 48

query: Consider next the molecule CC(=O)N(C)[C@H](Cc1ccc(-c2ccccc2)cc1)C(=O)N[C@@H](Cc1c[nH]c2ccccc12)C(=O)O [Compound 4] (Ac-[dNMeBip]-Trp-OH) in the same way.
result: 20
